Here the recorded % Inhibition (FS) 3 μM is given for each entry.
systemUnderTest: β-secretase(BACE) (Homo sapiens)
Construct: purchased Panvera
procedureSummary: BACE FS1% Inhibition Assay
Format: biochemical
testConditions: 3 μM test compound; FS1 substrate

// worked examples, % Inhibition (FS) 3 μM included
{"molecule": "CC(C)Oc1ccc2c(c1)CN(Cc1cccc(C(=O)N(C)C3CCCCC3)c1)C(N)=N2 [Compound 519]", "endpoint": "% Inhibition (FS) 3 μM", "measurement": "<30%"}
{"molecule": "NC1=Nc2ccc(Oc3ccccc3)cc2CN1CCNC(=O)C1CC1c1ccccc1 (stereo not shown) [Compound 139]", "endpoint": "% Inhibition (FS) 3 μM", "measurement": "<30%"}
{"molecule": "CN(C(=O)c1cccc(CN2Cc3cc(-c4ccccc4Oc4ccccc4)ccc3N=C2N)c1)C1CCCCC1 [Compound 326]", "endpoint": "% Inhibition (FS) 3 μM", "measurement": "79%"}

# next molecule below
Please give the documented % Inhibition (FS) 3 μM of CCCCCCCCCC(=O)NCCN1Cc2cc(Oc3ccccc3)ccc2N=C1N [Compound 142]
<30%

---

Listed below: % Inhibition (FS) 1 μM values for each entry.
systemUnderTest: β-secretase(BACE) (Homo sapiens)
Construct: purchased Panvera
procedureSummary: BACE FS1% Inhibition Assay
Type: biochemical
testConditions: 1 μM test compound; FS1 substrate
// units = %; emit number, no label

{"compound": "CC(C)C(=O)NCC(C1CCCCC1)N1Cc2cc(Oc3ccccc3)ccc2N=C1N (stereo not shown)", "% Inhibition (FS) 1 μM [%]": 82}

Read the next record carefully.
Return % Inhibition (FS) 1 μM (reported value) for this compound: `CCOc1cccc(Nc2ccc3c(c2)CN(Cc2cccc(C(=O)N(C)C4CCCCC4)c2)C(N)=N3)c1`
35

---

systemUnderTest: β-secretase(BACE) (Homo sapiens)
Construct: purchased Panvera
procedureSummary: BACE FS1% Inhibition Assay
Format: biochemical
testConditions: 0.3 μM test compound; FS1 substrate; read-out: % Inhibition (FS)
endpoint: inhibition at 0.3 µM

Past entries and their recorded results:
{"chemicalSmiles": "NC1=Nc2ccc(Br)cc2CN1CCC(=O)NC12CC3CC(CC(C3)C1)C2", "inhibition at 0.3 µM": "< 30%"}
{"chemicalSmiles": "NC1=Nc2ccc(Oc3ccccc3)cc2CN1Cc1cccc(C(=O)O)c1", "inhibition at 0.3 µM": "< 30%"}
{"chemicalSmiles": "NC1=Nc2ccc(Br)cc2CN1CCNC(=O)C1CCCCC1", "inhibition at 0.3 µM": "< 30%"}
{"chemicalSmiles": "CN(C(=O)c1cccc(CN2Cc3ccccc3N=C2N)c1)C1CCCCC1", "inhibition at 0.3 µM": "< 30%"}
{"chemicalSmiles": "NC1=Nc2ccc(Oc3ccccc3)cc2CN1Cc1cccc(N)c1", "inhibition at 0.3 µM": "< 30%"}

Shift focus to the following entry.
Retrieve inhibition at 0.3 µM measured for `CCCC(=O)NCCN1Cc2cc(Br)ccc2N=C1N` and print it.
< 30%

---

systemUnderTest: β-secretase(BACE) (Homo sapiens, UniProt P56817)
Construct: purchased Panvera
Sequence (P56817 46-501): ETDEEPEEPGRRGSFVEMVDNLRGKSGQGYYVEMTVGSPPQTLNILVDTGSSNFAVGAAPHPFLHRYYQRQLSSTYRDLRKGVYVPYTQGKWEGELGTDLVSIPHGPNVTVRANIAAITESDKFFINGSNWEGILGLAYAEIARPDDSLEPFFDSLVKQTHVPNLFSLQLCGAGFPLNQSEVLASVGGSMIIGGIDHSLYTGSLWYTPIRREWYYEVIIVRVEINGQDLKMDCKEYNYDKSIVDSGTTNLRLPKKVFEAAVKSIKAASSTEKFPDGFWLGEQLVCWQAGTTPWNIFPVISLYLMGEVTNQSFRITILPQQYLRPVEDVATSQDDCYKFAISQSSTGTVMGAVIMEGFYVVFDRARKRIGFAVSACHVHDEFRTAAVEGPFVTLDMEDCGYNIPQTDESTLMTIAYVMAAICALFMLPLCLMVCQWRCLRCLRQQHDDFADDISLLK
procedureSummary: BACE FS1% Inhibition Assay
Assay type: biochemical
testConditions: 3 μM test compound; FS1 substrate
endpoint: % Inhibition (FS) 3 μM

{"compound": "NC1=Nc2ccc(Oc3ccccc3)cc2CN1C(c1ccccc1)c1cccc(C(=O)N(C2CCCCC2)C2CCCCC2)c1 (stereo not drawn)", "systemUnderTest": "β-secretase(BACE) (Homo sapiens, UniProt P56817)", "% Inhibition (FS) 3 μM": "54%"}
{"compound": "CCCCC(CC)CN(CC(CC)CCCC)C(=O)c1cccc(CN2Cc3cc(Oc4ccccc4)ccc3N=C2N)c1 (stereo not drawn)", "systemUnderTest": "β-secretase(BACE) (Homo sapiens, UniProt P56817)", "% Inhibition (FS) 3 μM": "<30%"}

Check the records and state % Inhibition (FS) 3 μM for `CC(=O)Nc1ccc(C(=O)NCCN2Cc3cc(-c4cccc(C(F)(F)F)c4)ccc3N=C2N)cc1`
<30%
